- ASSAYED SYSTEM: Tyrosine-protein kinase JAK2 (Homo sapiens, UniProt O60674)
- Sequence (O60674 whole entry): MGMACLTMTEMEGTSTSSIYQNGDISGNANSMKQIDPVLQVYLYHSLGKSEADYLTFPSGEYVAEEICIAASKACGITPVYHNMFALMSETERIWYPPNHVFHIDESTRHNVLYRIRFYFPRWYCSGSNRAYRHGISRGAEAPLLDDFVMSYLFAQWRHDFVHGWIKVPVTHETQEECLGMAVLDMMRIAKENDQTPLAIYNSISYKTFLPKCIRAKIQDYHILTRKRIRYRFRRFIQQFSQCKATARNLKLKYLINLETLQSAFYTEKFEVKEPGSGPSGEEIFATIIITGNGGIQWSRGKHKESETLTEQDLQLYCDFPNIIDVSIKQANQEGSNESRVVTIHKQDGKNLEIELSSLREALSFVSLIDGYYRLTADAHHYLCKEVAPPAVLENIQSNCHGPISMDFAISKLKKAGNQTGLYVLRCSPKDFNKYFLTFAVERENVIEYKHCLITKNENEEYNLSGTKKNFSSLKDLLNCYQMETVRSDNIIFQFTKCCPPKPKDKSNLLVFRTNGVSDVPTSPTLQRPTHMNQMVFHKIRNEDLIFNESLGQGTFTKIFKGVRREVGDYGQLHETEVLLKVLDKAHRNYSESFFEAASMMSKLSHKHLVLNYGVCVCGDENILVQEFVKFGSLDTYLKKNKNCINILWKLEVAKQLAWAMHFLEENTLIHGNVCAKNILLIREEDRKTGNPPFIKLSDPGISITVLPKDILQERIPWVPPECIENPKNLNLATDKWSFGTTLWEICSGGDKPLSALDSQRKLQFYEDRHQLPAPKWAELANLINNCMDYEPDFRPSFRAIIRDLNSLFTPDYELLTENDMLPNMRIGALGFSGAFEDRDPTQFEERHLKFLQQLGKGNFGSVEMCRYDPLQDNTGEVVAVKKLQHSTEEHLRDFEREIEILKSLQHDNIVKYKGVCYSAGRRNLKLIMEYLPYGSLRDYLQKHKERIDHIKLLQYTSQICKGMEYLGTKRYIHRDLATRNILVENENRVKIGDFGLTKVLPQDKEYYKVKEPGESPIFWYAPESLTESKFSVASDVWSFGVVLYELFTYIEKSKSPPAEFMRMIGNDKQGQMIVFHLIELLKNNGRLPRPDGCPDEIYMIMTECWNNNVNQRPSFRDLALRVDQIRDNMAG
MEASURED PROPERTY: log10(IC50) (log10 of the value in nM)
Lab note - IC50 converted to log10 from values in nM.

Some solved cases for reference:
>>> quantitative_result("CC(=O)N1CCc2[nH]c(-c3n[nH]c4nc(-c5cc(F)c(O)cc5CC(F)(F)F)nc(NCc5cc(O)ccc5N(C)S(C)(=O)=O)c34)nc2C1")
1.16
>>> quantitative_result("CNC(=O)c1n[nH]c2nc(-c3cc(F)c(O)cc3CC(F)(F)F)nc(NCc3nccnc3N(C)S(C)(=O)=O)c12")
2.45
>>> quantitative_result("CNC(=O)c1n[nH]c2nc(-c3cc(F)c(O)cc3CC(F)(F)F)nc(NCc3ccccc3N(CCO)S(C)(=O)=O)c12")
1.51

Ask | What log10(IC50) value was documented for this compound, CCN(c1ccc(O)cc1CNc1nc(-c2cc(F)c(O)cc2CC(F)(F)F)nc2[nH]nc(C(=O)NC)c12)S(=O)(=O)c1ccccc1 ?
Reply | 2.51

Ask | Report log10(IC50) for CN(c1ccc(O)cc1CNc1nc(-c2cc(F)c(O)cc2CC(F)(F)F)cc2[nH]nc(C(=O)Nc3ccc(NCCO)nc3)c12)S(C)(=O)=O please.
Reply | 1.35

====

As an illustration, consider measured IC50 for compounds on Tyrosine-protein kinase JAK1 (Homo sapiens, UniProt P23458).
Sequence (P23458 whole entry): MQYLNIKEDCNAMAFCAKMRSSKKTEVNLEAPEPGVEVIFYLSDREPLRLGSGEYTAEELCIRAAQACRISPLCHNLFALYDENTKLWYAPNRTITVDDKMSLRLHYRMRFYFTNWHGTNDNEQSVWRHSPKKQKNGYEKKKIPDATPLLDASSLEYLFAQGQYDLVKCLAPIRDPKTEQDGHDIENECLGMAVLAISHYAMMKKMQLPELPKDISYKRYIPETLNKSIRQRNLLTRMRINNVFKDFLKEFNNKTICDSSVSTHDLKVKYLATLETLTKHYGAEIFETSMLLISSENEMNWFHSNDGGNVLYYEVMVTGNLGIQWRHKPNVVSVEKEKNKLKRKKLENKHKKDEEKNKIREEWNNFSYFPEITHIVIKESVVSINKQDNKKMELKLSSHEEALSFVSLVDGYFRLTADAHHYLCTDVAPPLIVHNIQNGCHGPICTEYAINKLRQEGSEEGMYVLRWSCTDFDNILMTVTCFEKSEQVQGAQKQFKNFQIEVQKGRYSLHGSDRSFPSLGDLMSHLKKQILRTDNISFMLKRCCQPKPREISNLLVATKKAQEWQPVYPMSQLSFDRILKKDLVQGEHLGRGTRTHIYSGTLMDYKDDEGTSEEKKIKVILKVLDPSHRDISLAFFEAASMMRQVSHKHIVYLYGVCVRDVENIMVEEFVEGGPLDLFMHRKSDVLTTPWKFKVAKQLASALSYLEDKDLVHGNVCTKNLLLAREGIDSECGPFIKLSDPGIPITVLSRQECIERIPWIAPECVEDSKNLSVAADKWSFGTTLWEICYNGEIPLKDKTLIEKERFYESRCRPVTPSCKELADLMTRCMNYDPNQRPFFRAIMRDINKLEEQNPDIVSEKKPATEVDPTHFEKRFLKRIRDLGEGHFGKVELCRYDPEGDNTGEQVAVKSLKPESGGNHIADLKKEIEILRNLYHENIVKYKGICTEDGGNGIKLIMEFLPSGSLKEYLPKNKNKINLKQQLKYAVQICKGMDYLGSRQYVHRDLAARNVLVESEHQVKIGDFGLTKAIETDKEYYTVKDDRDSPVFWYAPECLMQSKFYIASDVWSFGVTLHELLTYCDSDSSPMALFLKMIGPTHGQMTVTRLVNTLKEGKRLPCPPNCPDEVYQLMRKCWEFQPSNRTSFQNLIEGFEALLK
Remember to quote the unit after the number.

Some compounds with known IC50 results, for comparison:
>>> result("CCN(c1ccc(O)cc1CNc1nc(-c2cc(F)c(O)cc2CC(F)(F)F)nc2[nH]nc(C(=O)NC)c12)S(=O)(=O)c1ccccc1 [US10022376, Example 75]")
"0.0611 µM"
>>> result("CN(c1ccc(O)cc1CNc1nc(-c2cc(F)c(O)cc2CC(F)(F)F)cc2[nH]nc(C(=O)Nc3ccc(NCCO)nc3)c12)S(C)(=O)=O [US10022376, Example 164]")
"0.0045 µM"
>>> result("CNC(=O)c1n[nH]c2nc(-c3cc(F)c(O)cc3CC(F)(F)F)nc(NCc3nccnc3N(C)S(C)(=O)=O)c12 [US10022376, Example 106]")
"0.0412 µM"

Could you now look at the following compound, please?
Ask | For CN(c1ccc(O)cc1CNc1nc(-c2cc(F)c(O)cc2CC(F)(F)F)nc2[nH]nc(C(=O)Nc3ccc(NCCO)nc3)c12)S(C)(=O)=O [US10022376, Example 169] , what is its reported IC50?
Reply | 0.0105 µM
